# SUBJECT OF TEST: human EP1 receptor (Homo sapiens, UniProt P34995)
# Sequence (P34995 1-402): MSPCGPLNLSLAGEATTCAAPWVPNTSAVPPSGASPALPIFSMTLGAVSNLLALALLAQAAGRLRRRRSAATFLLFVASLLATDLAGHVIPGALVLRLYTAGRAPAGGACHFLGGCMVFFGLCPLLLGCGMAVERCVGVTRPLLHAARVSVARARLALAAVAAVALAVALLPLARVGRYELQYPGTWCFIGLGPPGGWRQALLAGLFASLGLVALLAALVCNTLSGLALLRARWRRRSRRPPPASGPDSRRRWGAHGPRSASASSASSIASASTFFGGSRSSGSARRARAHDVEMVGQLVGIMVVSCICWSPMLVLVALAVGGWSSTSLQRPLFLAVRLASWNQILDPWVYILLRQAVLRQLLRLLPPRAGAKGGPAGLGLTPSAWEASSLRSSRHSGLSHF
# MEASUREMENT PROTOCOL: Test 1: Human EP1 receptor radioligand binding assay ([3H]-PGE2, transfected HEK-293 cell membranes)
# Parameters: expressed in transfected cells; host or cells: HEK-293 cell membranes
# CONDITION SET: read-out: Results of Test 1 (Binding assay), % inh
QUANTITY MEASURED: inhibition at 10 µM

### Prompt Given the entry O=C(O)c1ccnc2c1CCN2Cc1cc(Cl)ccc1OCc1ccc(Cl)cc1F [Example 216] , what inhibition at 10 µM was observed with human EP1 receptor (Homo sapiens, UniProt P34995)?
### Response > 75%

### Prompt Another compound to check: O=C(O)c1cccc2c1cnn2Cc1cc(Cl)ccc1OCc1ccc(Cl)cc1F [Example 124]
### Response > 75%

### Prompt Subsequent entry: CC(C)COc1ccc(Cl)cc1CN1CCc2c(C(=O)O)cccc21 [Example 169]
### Response > 75%

Further cases:
### Prompt // map O=C(O)c1cccc2c1c(CO)cn2Cc1cc(F)ccc1OCc1ccc(F)cc1 [Example 149] to recorded inhibition at 10 µM (system: human EP1 receptor (Homo sapiens, UniProt P34995))
### Response > 75%

### Prompt Continue with O=C(O)c1cccc2c1ccn2Cc1cc(C(F)(F)F)ccc1OCc1ccc(F)cc1F [Example 51]
### Response 45 to 75%

### Prompt Now this one: O=C(O)c1cccc2c1ccn2Cc1cc(Cl)ccc1OCc1ccc(F)c(F)c1F [Example 21]
### Response 45 to 75%

### Prompt Next compound: CCCOc1ccc(Cl)cc1Cn1ccc2c(C(=O)O)cccc21 [Example 106]
### Response 45 to 75%

### Prompt Also, O=C(O)c1cccc2c1ccn2Cc1cc(F)ccc1OCc1cc(F)c(F)c(F)c1 [Example 34] please.
### Response 45 to 75%

### Prompt Thanks! And O=C(O)c1ccc2c(ccn2Cc2cc(C(F)(F)F)ccc2OCc2ccc(Br)cc2F)c1 [Example 75] ?
### Response 45 to 75%

### Prompt Next: CC(C)COc1ccc(Cl)cc1CN1CCCc2c(C(=O)O)cccc21 [Example 175]
### Response > 75%

### Prompt And the next one, O=C(O)c1cccc2c1ccn2Cc1cc(Cl)ccc1OC1CCCC1 [Example 105] ?
### Response > 75%

### Prompt Again, but for CC(C)(F)COc1ccc(Cl)cc1CN1CCc2c(C(=O)O)cccc21 [Example 166]
### Response > 75%
